- target of assay: Tyrosine-protein kinase ITK/TSK (Homo sapiens, UniProt Q08881)
- Sequence (Q08881 whole entry): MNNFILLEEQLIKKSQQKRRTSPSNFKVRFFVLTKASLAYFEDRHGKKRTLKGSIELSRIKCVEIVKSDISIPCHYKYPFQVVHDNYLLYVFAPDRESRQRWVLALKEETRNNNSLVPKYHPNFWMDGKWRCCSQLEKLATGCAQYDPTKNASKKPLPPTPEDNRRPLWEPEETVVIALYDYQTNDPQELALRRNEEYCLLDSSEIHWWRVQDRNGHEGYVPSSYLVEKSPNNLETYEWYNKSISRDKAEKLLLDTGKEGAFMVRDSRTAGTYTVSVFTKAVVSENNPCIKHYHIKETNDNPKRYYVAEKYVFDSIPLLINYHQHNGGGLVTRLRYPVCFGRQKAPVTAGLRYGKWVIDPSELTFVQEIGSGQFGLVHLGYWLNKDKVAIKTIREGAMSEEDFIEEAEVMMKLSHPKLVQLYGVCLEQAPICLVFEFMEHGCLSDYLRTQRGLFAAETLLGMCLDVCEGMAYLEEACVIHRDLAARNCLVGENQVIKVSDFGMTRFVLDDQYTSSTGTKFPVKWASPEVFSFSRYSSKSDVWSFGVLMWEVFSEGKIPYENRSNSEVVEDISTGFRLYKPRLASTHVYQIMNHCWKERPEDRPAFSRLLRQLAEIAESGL
- measurement description: Antagonist activity at ITK expressed in chicken DT40 B cells assessed as inhibition of calcium flux
- Type: functional, cell-based
pIC50: −log10 of the molar value.
measured parameter: pIC50

Would you please look over these solved cases?
CN(C(=O)c1ccccc1)c1ccc2c(c1)[nH]/c(=N\C(=O)c1ccc(/C=C/c3cnccn3)s1)n2CCC(N)=O: 6.09
CN(C(=O)c1ccccc1)c1ccc2c(c1)[nH]/c(=N\C(=O)c1ccc(/C=C/n3ccnc3)s1)n2CCC(N)=O: 5.66

(A) CN(C(=O)c1ccccc1)c1ccc2c(c1)[nH]/c(=N\C(=O)c1ccc(/C=C/c3ncc(N)cn3)s1)n2CCC(N)=O
(B) CN(C(=O)c1ccccc1)c1ccc2c(c1)[nH]/c(=N\C(=O)c1ccc(/C=C/c3cccc(N)n3)s1)n2CCC(N)=O
Quick check, higher pIC50 between A and B ? Your answer should be the label of the entry you select.
A

---

- target of assay: Tyrosine-protein kinase ITK/TSK (Homo sapiens, UniProt Q08881)
- measurement description: Inhibition of ITK by DELPHIA
pIC50: −log10 of the molar value.
measured parameter: pIC50

Would you please look over these solved cases?
CN(C(=O)c1ccccc1)c1ccc2c(c1)[nH]/c(=N\C(=O)c1ccc(/C=C/c3cccc(N)n3)s1)n2CCC(N)=O: 8.15
CN(C(=O)c1ccccc1)c1ccc2c(c1)[nH]/c(=N\C(=O)c1ccc(/C=C/c3cnccn3)s1)n2CCC(N)=O: 8.10

(A) CN(C(=O)c1ccccc1)c1ccc2c(c1)[nH]/c(=N\C(=O)c1ccc(/C=C/c3ncc(N)cn3)s1)n2CCC(N)=O
(B) CN(C(=O)c1ccccc1)c1ccc2c(c1)[nH]/c(=N\C(=O)c1ccc(/C=C/n3ccnc3)s1)n2CCC(N)=O
Quick check, higher pIC50 between A and B ? Your answer should be the label of the entry you select.
A
